Target: Potassium voltage-gated channel subfamily KQT member 2 (Rattus norvegicus)
Test: KCNQ2 blockade in CHO cells – cell-based, FluxOR thallium flux, counter-screen for hERG block protector project, confirmation (AID 1946)
Details: FluxOR thallium flux fluorescence, at 10 µM, zero marks the 3-SD hit cutoff
The whole screen tested about 2,400 compounds, of which about 180 (7.5%) were called active.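 Rule for the calls: active = readout below zero, meaning a drop past 3 SD under the dofetilide-free negative control mean; inactive = the rest.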 This is one part of a sample in which actives are shown more often than they occur.
Permitted responses: active, inactive

The examples below pair each entry with its known result.
[
  {
    "Mol": "CCN(CC)C(=S)NC(=O)c1ccc(OC)c(Br)c1",
    "Category Label": "inactive"
  },
  {
    "Mol": "C=CCOc1ccccc1/C=c1\\sc2nc(=O)c(C)nn2c1=O",
    "Category Label": "inactive"
  },
  {
    "Mol": "Nc1nc2c(s1)CCc1c-2cnn1-c1ccccc1",
    "Category Label": "active"
  },
  {
    "Mol": "COc1cccc(C(=O)NNC(=O)C(=O)Nc2ccc(OC)cc2OC)c1",
    "Category Label": "inactive"
  },
  {
    "Mol": "O=C(Nc1cccn(Cc2c(Cl)cccc2Cl)c1=O)c1ccccc1Cl",
    "Category Label": "active"
  },
  {
    "Mol": "Cc1cccc(N=Cc2cc(Br)cc(Cl)c2O)c1",
    "Category Label": "inactive"
  }
]

So what was the verdict on O=C(Nc1ccsc1C(=O)O)c1ccccc1Cl in this test?
inactive

So what was the verdict on Cc1ccc(-c2nc3ccccc3c(=O)n2O)cc1 in this test?
inactive

---

Target: Potassium voltage-gated channel subfamily KQT member 2 (Rattus norvegicus) (UniProt O88943)
Sequence (O88943 whole entry, looked up): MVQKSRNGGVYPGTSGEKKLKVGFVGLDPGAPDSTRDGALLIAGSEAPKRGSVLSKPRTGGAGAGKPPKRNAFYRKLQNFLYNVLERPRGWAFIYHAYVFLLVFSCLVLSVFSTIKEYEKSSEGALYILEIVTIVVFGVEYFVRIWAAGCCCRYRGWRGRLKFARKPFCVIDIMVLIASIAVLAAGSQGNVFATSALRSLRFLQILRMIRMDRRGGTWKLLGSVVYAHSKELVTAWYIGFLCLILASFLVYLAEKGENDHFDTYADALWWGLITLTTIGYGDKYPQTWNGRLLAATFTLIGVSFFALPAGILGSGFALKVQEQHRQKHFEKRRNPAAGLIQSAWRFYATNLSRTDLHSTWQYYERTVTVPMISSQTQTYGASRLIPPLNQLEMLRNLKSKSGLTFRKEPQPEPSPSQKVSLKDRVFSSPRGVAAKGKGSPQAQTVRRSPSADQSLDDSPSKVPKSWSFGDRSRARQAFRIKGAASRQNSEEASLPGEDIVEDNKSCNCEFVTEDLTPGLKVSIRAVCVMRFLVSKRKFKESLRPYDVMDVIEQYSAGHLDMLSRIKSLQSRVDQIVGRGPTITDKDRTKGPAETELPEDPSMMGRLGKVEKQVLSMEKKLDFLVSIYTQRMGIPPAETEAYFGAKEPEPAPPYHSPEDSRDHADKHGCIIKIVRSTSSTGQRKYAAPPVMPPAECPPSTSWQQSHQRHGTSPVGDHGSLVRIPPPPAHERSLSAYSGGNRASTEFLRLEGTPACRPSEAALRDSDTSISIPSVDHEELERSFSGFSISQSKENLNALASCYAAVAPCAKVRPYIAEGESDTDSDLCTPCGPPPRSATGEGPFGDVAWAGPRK
Experiment: KCNQ2 blockade in CHO cells – cell-based, FluxOR thallium flux, counter-screen for hERG block protector project, confirmation (AID 1946)
Conditions: FluxOR thallium flux fluorescence, at 10 µM, zero marks the 3-SD hit cutoff
About 180 (7.5%) of roughly 2,400 compounds were called active.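 The calls were made as follows: active = readout below zero, meaning a drop past 3 SD under the dofetilide-free negative control mean; inactive = the rest.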 Only a selection was taken, and actives are over-represented in it overall.
Permitted responses: class 1 (active), class 0 (inactive)

[
  {
    "Compound": "COc1ccc(C(=O)NC(=S)N2CCC(C)CC2)cc1Br",
    "Category Label": "class 0"
  },
  {
    "Compound": "CCN(CC)C(=S)NC(=O)c1ccc(Cl)cc1Cl",
    "Category Label": "class 0"
  },
  {
    "Compound": "COc1cccc(C=Nc2cc(C)cc(C)c2)c1O",
    "Category Label": "class 0"
  },
  {
    "Compound": "Cc1ccc(/C=N/N2C(=O)c3ccccc3NC2c2ccc(C)cc2)cc1 (stereo unspecified)",
    "Category Label": "class 1"
  },
  {
    "Compound": "COCCN(C(=O)CSc1nnc(C)n1Cc1ccccc1)c1c(N)n(CC(C)C)c(=O)[nH]c1=O",
    "Category Label": "class 0"
  }
]

Query compound follows.
So what was the verdict on O=C(NC(=S)N1CCCCCC1)c1ccc(Cl)cc1Cl in this test?
class 0

---

Biological target: Potassium voltage-gated channel subfamily KQT member 2 (Rattus norvegicus) (UniProt O88943)
Test: KCNQ2 blockade in CHO cells – cell-based, FluxOR thallium flux, counter-screen for hERG block protector project, confirmation (AID 1946)
Settings: FluxOR thallium flux fluorescence, at 10 µM, stronger effect = lower value, zero marks the 3-SD hit cutoff
Out of some 2,400 compounds screened, about 180 (7.5%) were called active. The sample holds actives, similar compounds and a random draw of the others, so the mix is not that of the screen.
Below is a list of entries, each paired with its recorded activity change vs negative control value.
I only need the number, in %, no unit after it.

A selection of reference data follows.
[
  {
    "Compound": "Cc1ccc(S(=O)(=O)N2CCOCC2)cc1NC(=O)CSc1nc2ccccc2c(=O)n1Cc1ccccc1",
    "activity change vs negative control [%]": 13.7
  },
  {
    "Compound": "Cc1ccc(Cn2nnc3c(=O)n(CC(=O)N4CCCc5ccccc54)cnc32)cc1",
    "activity change vs negative control [%]": 13
  },
  {
    "Compound": "O=C(NC(=S)N1CCCc2ccccc21)c1ccc(Br)cc1",
    "activity change vs negative control [%]": 49.6
  },
  {
    "Compound": "Cc1cccc(/C=N/NC(=O)c2cc(Br)ccc2O)n1",
    "activity change vs negative control [%]": 23.8
  },
  {
    "Compound": "COc1ccc(CCNC(=O)c2ccc3c(c2)OCO3)cc1",
    "activity change vs negative control [%]": 5
  },
  {
    "Compound": "Cc1ccc(Cl)cc1NC(=O)COC(=O)c1ccccc1O",
    "activity change vs negative control [%]": 6.8
  }
]

Give reported activity change vs negative control value for CCOC(=O)c1c(NC(=O)CN2CCN(C(=O)c3ccco3)CC2)sc2c1CCCC2
39

Give reported activity change vs negative control value for CCCCNC(=S)NNC(=O)c1ccc2c(c1)OCO2
-2.9

Give reported activity change vs negative control value for Cc1ccc(S(=O)(=O)N2CCOCC2)cc1NC(=O)COC(=O)c1cccnc1Cl
-1.4

Give reported activity change vs negative control value for Cc1ccc(C(C)NC(=O)c2ccc3c(c2)OCO3)cc1C (stereo unspecified)
58.4

Give reported activity change vs negative control value for Cc1ccc(C(=O)N2CCN(c3ccccc3)CC2)cc1S(=O)(=O)N1CCCC1
29.7

Data provenance: PubChem BioAssay AID1946
